target: YES1 kinase (Homo sapiens, UniProt P07947); assay: YES1 kinase inhibition, ADP Glo assay (Promega); assay type: biochemical; settings: compound 10 nM; read-out: YES1 enzyme, % inhibition, 10 nM
Sequence (P07947 whole entry): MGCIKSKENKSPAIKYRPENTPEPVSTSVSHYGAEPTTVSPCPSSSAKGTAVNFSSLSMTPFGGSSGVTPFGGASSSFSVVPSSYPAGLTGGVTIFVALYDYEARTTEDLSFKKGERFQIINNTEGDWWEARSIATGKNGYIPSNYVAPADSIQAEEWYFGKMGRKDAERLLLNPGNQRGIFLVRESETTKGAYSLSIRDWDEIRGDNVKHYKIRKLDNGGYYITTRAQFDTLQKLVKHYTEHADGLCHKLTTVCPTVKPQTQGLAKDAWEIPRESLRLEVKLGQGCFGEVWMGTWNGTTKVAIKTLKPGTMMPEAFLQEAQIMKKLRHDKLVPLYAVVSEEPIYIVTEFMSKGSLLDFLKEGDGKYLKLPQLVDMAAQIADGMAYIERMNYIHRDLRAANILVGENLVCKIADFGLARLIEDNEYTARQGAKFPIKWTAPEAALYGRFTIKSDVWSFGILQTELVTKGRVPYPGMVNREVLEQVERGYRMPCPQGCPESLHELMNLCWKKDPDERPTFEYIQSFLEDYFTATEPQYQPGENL
reported property: inhibition at 0.01 µM (%)
Numbers only, in %.

Examples with answers:
COc1cc(-c2cc(N3CCC(CN(C)C)CC3)n3ncnc(N)c23)ccc1NC(=O)OC(C)(C)C [Example 19] | 69
COc1cc(-c2cc(N3CCC(CN)C(C)(C)C3)n3ncnc(N)c23)ccc1NC(=O)OC(C)(C)C (stereo not shown) [Example 104] | 45
COc1cc(-c2cc(NC3CCNCC3)n3ncnc(N)c23)ccc1NC(=O)OC(C)(C)C [Example 120] | 40

Kindly review the next compound as well.
Output measured inhibition at 0.01 µM for this item: COc1cc(-c2cc(N3C[C@@H]4[C@H](C3)[C@H]4N(C)C)n3ncnc(N)c23)ccc1NC(=O)OC(C)(C)C [Example 42]
63

----------
Kindly supply the reported inhibition at 0.1 µM values for the records listed here.
target: YES1 kinase (Homo sapiens); assay: YES1 kinase inhibition, ADP Glo assay (Promega); type: biochemical; settings: compound 100 nM; read-out: YES1 enzyme, % inhibition, 100 nM
The reply should consist of the numeric value with the unit placed after it.

Examples with answers:
COc1cc(-c2cc(N3CC4(CC(N(C)C)C4)C3)n3ncnc(N)c23)ccc1NC(=O)OC(C)(C)C | 81%
COc1cc(-c2cc(N[C@H]3CC[C@@H](N)CC3)n3ncnc(N)c23)ccc1NC(=O)OC(C)(C)C | 77%
COc1cc(-c2cc(N3CC[C@@H](N(C)C)C3)n3ncnc(N)c23)ccc1NC(=O)OC(C)(C)C | 38%

Kindly review the next compound as well.
Output measured inhibition at 0.1 µM for this item: CNC1CCN(c2cc(-c3ccc(NC(=O)OC(C)(C)C)c(OC)c3)c3c(N)ncnn23)CC1
96%

----------
Kindly supply the reported inhibition at 0.1 µM values for the records listed here.
target: YES1 kinase (Homo sapiens); assay: YES1 kinase inhibition, ADP Glo assay (Promega); type: biochemical; details: compound 100 nM; read-out: YES1 enzyme, % inhibition, 100 nM
Give bare numbers, in %.

CCNC1CCN(c2cc(-c3ccc(NC(=O)OC(C)(C)C)c(OC)c3)c3c(N)ncnn23)CC1 [Example 92] | 81
CNC1CCN(c2c(F)c(-c3ccc(NC(=O)OC(C)(C)C)c(OC)c3)c3c(N)ncnn23)CC1 [Example 129] | 92
COc1cc(-c2cc(N3CCC4(CC3)CC(=O)N4)n3ncnc(N)c23)ccc1NC(=O)OC(C)(C)C [Example 56] | 68
COc1cc(-c2cc(-c3ccc4c(c3)OCCN4C)n3ncnc(N)c23)ccc1NC(=O)OC(C)(C)C [Example 7] | 49
COc1cc(-c2cc(N3CCC(N(C)C)CC3)n3ncnc(N)c23)ccc1NC(=O)OC(C)(C)C [Example 15] | 88
COc1cc(-c2cc(NC3CCNCC3)n3ncnc(N)c23)ccc1NC(=O)OC(C)(C)C [Example 120] | 78

Kindly review the next molecule as well.
Output measured inhibition at 0.1 µM for this item: COc1cc(-c2cc(N3CCC4(CCN(C)C4)CC3)n3ncnc(N)c23)ccc1NC(=O)OC(C)(C)C [Example 22]
87

----------
Kindly supply the reported GI50 values for the records listed here.
Test system: KYSE-70 esophageal cancer cell line
Test: Cell growth inhibition of KYSE-70 (Sulforhodamine B)
Type: cell-based
Details: Homo sapiens; KYSE-70, 72 hours; read-out: KYSE70 GI50
Experimental: The cell line according to the present invention was selected as KYSE-70, an esophageal cancer cell line in which YES1 is amplified. The evaluation of cell growth inhibition was performed as follows. KYSE-70 was cultured in RPMI-1640 (Capricorn) supplemented with 10% FBS (Cellgro). […] Viable cells were measured 72 hours after compound treatment by injecting 50 μL of 33% trichloroacetic acid and incubating at 4° C. for more than 1 hour to fix the cells. […]

Examples with answers:
CNC1CCN(CCc2c(C)c(-c3ccc(NC(=O)OC(C)(C)CF)c(OC)c3)c3c(N)ncnn23)CC1 | ≤ 100 nM
COc1cc(-c2cc(N3CCC(N)C(C)(C)C3)n3ncnc(N)c23)ccc1NC(=O)OC(C)(C)C (stereo not drawn) | ≤ 100 nM
COc1cc(-c2cc(N3CC[C@H](N)[C@@H](C(F)(F)F)C3)n3ncnc(N)c23)ccc1NC(=O)OC(C)(C)C | ≤ 100 nM

Give GI50 for each listed item.
1. COc1cc(-c2cc(N3CCC(N)CC3)n3ncnc(N)c23)ccc1NC(=O)c1ccoc1
2. CNC1(C)CCN(c2cc(-c3ccc(NC(=O)OC(C)(C)C)c(OC)c3)c3c(N)ncnn23)CC1
3. COc1cc(-c2cc(N3CC[C@@H](N(C)C)C3)n3ncnc(N)c23)ccc1NC(=O)OC(C)(C)C
4. COc1cc(-c2cc(N3CCC(N)CC3)n3ncnc(N)c23)ccc1NC(=O)OC(C)(C)CF
5. COc1cc(-c2cc(-c3ccc4c(c3)OCC(=O)N4C)n3ncnc(N)c23)ccc1NC(=O)OC(C)(C)C

> 10000 nM
≤ 100 nM
1000 to 10000 nM
100 to 1000 nM
> 10000 nM
